study system: T1, human Y2 receptor (human, UniProt P49146 1-381)
T1 sequence (looked up): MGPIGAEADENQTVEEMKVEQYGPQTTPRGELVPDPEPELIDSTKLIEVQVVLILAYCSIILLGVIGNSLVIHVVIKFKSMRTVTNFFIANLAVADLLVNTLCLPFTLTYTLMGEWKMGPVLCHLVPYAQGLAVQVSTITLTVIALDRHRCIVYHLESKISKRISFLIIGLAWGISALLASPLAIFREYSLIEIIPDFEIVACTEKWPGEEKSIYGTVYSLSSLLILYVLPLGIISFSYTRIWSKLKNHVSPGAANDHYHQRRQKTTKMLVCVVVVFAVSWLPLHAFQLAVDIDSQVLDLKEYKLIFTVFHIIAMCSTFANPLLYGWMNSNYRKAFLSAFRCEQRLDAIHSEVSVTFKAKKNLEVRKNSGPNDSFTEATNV
assay: cell-based or functional assay
Positions of bridges follow the written chain, without caps; N, C: chain ends. Non-standard residues stand in square brackets, D forms with d. No end group written: not given here. Phe(2-F) = N[C@@H](Cc1ccccc1F)C(=O)O; Ala(cPr) = N[C@@H](CC1CC1)C(=O)O; Cha = N[C@@H](CC1CCCCC1)C(=O)O; 4Amb = NCc1ccc(C(=O)O)cc1; hSer = N[C@@H](CCO)C(=O)O; Nva = CCC[C@H](N)C(=O)O; Aib = CC(C)(N)C(=O)O
Reported GBA EC50 Ratio (vs PYY(3-36)), [35S]GTPγS by item:
readout kind: GBA EC50 Ratio (vs PYY(3-36)), [35S]GTPγS

>>> reported("[4Amb]R[Ala(cPr)]YINLITRQRY-NH2 (N-terminus assumed; SMILES CC[C@H](C)[C@H](NC(=O)[C@H](Cc1ccc(O)cc1)NC(=O)[C@H](CC1CC1)NC(=O)[C@H](CCCNC(=N)N)NC(=O)c1ccc(CN)cc1)C(=O)N[C@@H](CC(N)=O)C(=O)N[C@@H](CC(C)C)C(=O)N[C@H](C(=O)N[C@H](C(=O)N[C@@H](CCCNC(=N)N)C(=O)N[C@@H](CCC(N)=O)C(=O)N[C@@H](CCCNC(=N)N)C(=O)N[C@@H](Cc1ccc(O)cc1)C(N)=O)[C@@H](C)O)[C@@H](C)CC, name prints Ile28,32; also called compound No. 48) [4-Aminomethylbenzoyl-[Ala(cPr)26, Ile28,32]-PYY(25-36)]")
"4.1 ratio"
>>> reported("Ac-S[dP]RH[Cha][Cha]NL[Aib]TRQRY-NH2 (SMILES CC(=O)N[C@@H](CO)C(=O)N1CCC[C@@H]1C(=O)N[C@@H](CCCNC(=N)N)C(=O)N[C@@H](Cc1c[nH]cn1)C(=O)N[C@@H](CC1CCCCC1)C(=O)N[C@@H](CC1CCCCC1)C(=O)N[C@@H](CC(N)=O)C(=O)N[C@@H](CC(C)C)C(=O)NC(C)(C)C(=O)N[C@H](C(=O)N[C@@H](CCCNC(=N)N)C(=O)N[C@@H](CCC(N)=O)C(=O)N[C@@H](CCCNC(=N)N)C(=O)N[C@@H](Cc1ccc(O)cc1)C(N)=O)[C@@H](C)O, also called compound No. 142) [Ac-[D-Pro24, Cha27,28, Aib31]-PYY(23-36)]")
"1.1 ratio"
>>> reported("[4Amb]RHEINLKTRQRY-NH2 (lactam 4-8; N-terminus assumed; SMILES CC[C@H](C)[C@@H]1NC(=O)[C@@H](NC(=O)[C@H](Cc2c[nH]cn2)NC(=O)[C@H](CCCNC(=N)N)NC(=O)c2ccc(CN)cc2)CCC(=O)NCCCC[C@@H](C(=O)N[C@H](C(=O)N[C@@H](CCCNC(=N)N)C(=O)N[C@@H](CCC(N)=O)C(=O)N[C@@H](CCCNC(=N)N)C(=O)N[C@@H](Cc2ccc(O)cc2)C(N)=O)[C@@H](C)O)NC(=O)[C@H](CC(C)C)NC(=O)[C@H](CC(N)=O)NC1=O, also called compound No. 25) [cyclo(27-31)-4-Aminomethylbenzoyl-[Glu27, Ile28, Lys31]-PYY(25-36)]")
"16 ratio"
>>> reported("[4Amb]RAYI[Aib]LITRQRY-NH2 (N-terminus assumed; SMILES CC[C@H](C)[C@H](NC(=O)[C@H](CC(C)C)NC(=O)C(C)(C)NC(=O)[C@@H](NC(=O)[C@H](Cc1ccc(O)cc1)NC(=O)[C@H](C)NC(=O)[C@H](CCCNC(=N)N)NC(=O)c1ccc(CN)cc1)[C@@H](C)CC)C(=O)N[C@H](C(=O)N[C@@H](CCCNC(=N)N)C(=O)N[C@@H](CCC(N)=O)C(=O)N[C@@H](CCCNC(=N)N)C(=O)N[C@@H](Cc1ccc(O)cc1)C(N)=O)[C@@H](C)O, also called compound No. 46) [4-Aminomethylbenzoyl-[Ala26, Ile28,31, Aib29]-PYY(25-36)]")
"34 ratio"
>>> reported("[4Amb]RAYINLI[Nva]RQRY-NH2 (N-terminus assumed; SMILES CCC[C@H](NC(=O)[C@@H](NC(=O)[C@H](CC(C)C)NC(=O)[C@H](CC(N)=O)NC(=O)[C@@H](NC(=O)[C@H](Cc1ccc(O)cc1)NC(=O)[C@H](C)NC(=O)[C@H](CCCNC(=N)N)NC(=O)c1ccc(CN)cc1)[C@@H](C)CC)[C@@H](C)CC)C(=O)N[C@@H](CCCNC(=N)N)C(=O)N[C@@H](CCC(N)=O)C(=O)N[C@@H](CCCNC(=N)N)C(=O)N[C@@H](Cc1ccc(O)cc1)C(N)=O, also called compound No. 61) [4-Aminomethylbenzoyl-[Ala26, Ile28,31, Nva32]-PYY(25-36)]")
"17 ratio"
>>> reported("Ac-[dF]RAYINLITRQRY-NH2 (SMILES CC[C@H](C)[C@H](NC(=O)[C@H](Cc1ccc(O)cc1)NC(=O)[C@H](C)NC(=O)[C@H](CCCNC(=N)N)NC(=O)[C@@H](Cc1ccccc1)NC(C)=O)C(=O)N[C@@H](CC(N)=O)C(=O)N[C@@H](CC(C)C)C(=O)N[C@H](C(=O)N[C@H](C(=O)N[C@@H](CCCNC(=N)N)C(=O)N[C@@H](CCC(N)=O)C(=O)N[C@@H](CCCNC(=N)N)C(=O)N[C@@H](Cc1ccc(O)cc1)C(N)=O)[C@@H](C)O)[C@@H](C)CC, also called compound No. 35) [Ac-[D-Phe24, Ala26, Ile28,31]-PYY(24-36)]")
"8.7 ratio"
>>> reported("Ac-S[dP]RH[Cha][hSer]NL[Aib]TRQR[Cha]-NH2 (SMILES CC(=O)N[C@@H](CO)C(=O)N1CCC[C@@H]1C(=O)N[C@@H](CCCNC(=N)N)C(=O)N[C@@H](Cc1c[nH]cn1)C(=O)N[C@@H](CC1CCCCC1)C(=O)N[C@@H](CCO)C(=O)N[C@@H](CC(N)=O)C(=O)N[C@@H](CC(C)C)C(=O)NC(C)(C)C(=O)N[C@H](C(=O)N[C@@H](CCCNC(=N)N)C(=O)N[C@@H](CCC(N)=O)C(=O)N[C@@H](CCCNC(=N)N)C(=O)N[C@@H](CC1CCCCC1)C(N)=O)[C@@H](C)O, also called compound No. 144) [Ac-[D-Pro24, Cha27,36, Hse28, Aib31]-PYY(23-36)]")
"4.5 ratio"
>>> reported("Ac-S[dP]RH[Cha][Cha]NL[Aib]TRQR[Phe(2-F)]-NH2 (SMILES CC(=O)N[C@@H](CO)C(=O)N1CCC[C@@H]1C(=O)N[C@@H](CCCNC(=N)N)C(=O)N[C@@H](Cc1c[nH]cn1)C(=O)N[C@@H](CC1CCCCC1)C(=O)N[C@@H](CC1CCCCC1)C(=O)N[C@@H](CC(N)=O)C(=O)N[C@@H](CC(C)C)C(=O)NC(C)(C)C(=O)N[C@H](C(=O)N[C@@H](CCCNC(=N)N)C(=O)N[C@@H](CCC(N)=O)C(=O)N[C@@H](CCCNC(=N)N)C(=O)N[C@@H](Cc1ccccc1F)C(N)=O)[C@@H](C)O, also called compound No. 194) [Ac-[D-Pro24, Cha27,28, Aib31, Phe(2F)36]-PYY(23-36)]")
"1.3 ratio"
